Recorded values, source paper PMC8409973.

- Tested on: ctDNA
- Test name: CD titration of ctDNA
- Assay type: binding, calf
- Test context: concluded from ICD, ΔTm and binding constants

| Compound | binding mode to ctDNA |
| --- | --- |
| CS(=O)(=O)O.Clc1ccc(-n2cc(COc3nc4ccc(C5=NCCN5)cc4s3)nn2)cc1 [11b] | intercalation |
| N=C(N)c1ccc2nc(-c3ccc(OCc4cn(-c5ccc(Cl)cc5)nn4)cc3)sc2c1 [10b] | intercalation |

* * *

Can you tell me melting point for the items I'm about to list?
Counter-ions that a name gives are not always drawn.

The molecule listed as COc1ccc(-n2cc(COc3nc4ccc(C5=NCCN5)cc4s3)nn2)cc1.CS(=O)(=O)O [11c] has a reported melting point of 253 to 257 °C

The molecule listed as CS(=O)(=O)O.c1ccc(-n2cc(-c3nc4ccc(C5=NCCCN5)cc4s3)nn2)cc1 [15a] has a reported melting point of 269 to 274 °C

The molecule listed as COc1ccc(-n2cc(-c3nc4ccc(C5=NCCCN5)cc4s3)nn2)cc1.CS(=O)(=O)O [15c] has a reported melting point of 261 to 265 °C

The molecule listed as CS(=O)(=O)O.c1ccc(Cn2cc(COc3nc4ccc(C5=NCCCN5)cc4s3)nn2)cc1 [12d] has a reported melting point of 197 to 199 °C

The molecule listed as CS(=O)(=O)O.c1ccc(Cn2cc(COc3nc4ccc(C5=NCCN5)cc4s3)nn2)cc1 [11d] has a reported melting point of 227 to 232 °C

The molecule listed as N=C(N)c1ccc2nc(-c3ccc(OCc4cn(-c5ccccc5)nn4)cc3)sc2c1 (as salt: methanesulfonate) [10a] has a reported melting point of 272 to 275 °C

The molecule listed as CS(=O)(=O)O.Clc1ccc(-n2cc(COc3nc4ccc(C5=NCCN5)cc4s3)nn2)cc1 [11b] has a reported melting point of 263 to 266 °C

The molecule listed as CS(=O)(=O)O.Clc1ccc(-n2cc(COc3nc4ccc(C5=NCCCN5)cc4s3)nn2)cc1 [12b] has a reported melting point of 220 to 224 °C

* * *

Can you tell me IC50 for the items I'm about to list?
- System: Bloodstream form T. b. brucei (strain 221)
- Test name: Antitrypanosomal screening (resazurin)
- Assay type: cell-based
- Test context: Trypanosoma brucei, mean of triplicate ± SEM
Express the result in nM but write the number alone.

The compound listed as CS(=O)(=O)O.c1ccc(-n2cc(COc3nc4ccc(C5=NCCN5)cc4s3)nn2)cc1 [11a] has a reported IC50 of 230

The compound listed as CS(=O)(=O)O.Clc1ccc(-n2cc(-c3nc4ccc(C5=NCCN5)cc4s3)nn2)cc1 [14b] has a reported IC50 of 320

The compound listed as CS(=O)(=O)O.c1ccc(Cn2cc(-c3nc4ccc(C5=NCCN5)cc4s3)nn2)cc1 [14d] has a reported IC50 of 3680

* * *

- Test system: Bloodstream form T. b. brucei (strain 221)
- Test name: Antitrypanosomal screening (resazurin)
- Assay type: cell-based
- Test context: Trypanosoma brucei, mean of triplicate ± SEM
- Method: Resazurin (20 μl at 0.125 mg ml^−1) was added after 48 h, the plates were incubated for a further 16 h, and then read in a Spectramax plate reader, and data analysed using GraphPad Prism. Each drug was tested in triplicate.
Can you tell me IC50 for the items I'm about to list?
Could you give the number and then its unit, please?

The compound listed as CS(=O)(=O)O.c1ccc(Cn2cc(COc3nc4ccc(C5=NCCN5)cc4s3)nn2)cc1 [11d] has a reported IC50 of 1090 nM

The compound listed as COc1ccc(-n2cc(COc3nc4ccc(C5=NCCCN5)cc4s3)nn2)cc1.CS(=O)(=O)O [12c] has a reported IC50 of 900 nM

The compound listed as N=C(N)c1ccc2nc(-c3ccc(OCc4cn(-c5ccccc5)nn4)cc3)sc2c1 [10a] has a reported IC50 of 1170 nM

The compound listed as COc1ccc(-n2cc(COc3nc4ccc(C5=NCCN5)cc4s3)nn2)cc1.CS(=O)(=O)O [11c] has a reported IC50 of 190 nM

* * *

- Test system: HeLa (cervical carcinoma)
- Test name: Proliferation assay (MTT, 72 h) on HeLa
- Format: cell-based
- Test context: Homo sapiens
Reported metric: pIC50
The meaning of pIC50 here: minus log10 of the concentration in molar units.

The molecule listed as N=C(N)c1ccc2nc(-c3ccc(OCc4cn(-c5ccccc5)nn4)cc3)sc2c1 [10a] has a reported pIC50 of 5.54

The molecule listed as CS(=O)(=O)O.c1ccc(Cn2cc(-c3nc4ccc(C5=NCCN5)cc4s3)nn2)cc1 [14d] has a reported pIC50 of 6.09

The molecule listed as COc1ccc(-n2cc(COc3nc4ccc(C5=NCCCN5)cc4s3)nn2)cc1.CS(=O)(=O)O [12c] has a reported pIC50 of 5.58

The molecule listed as N=C(N)c1ccc2nc(-c3ccc(OCc4cn(-c5ccc(Cl)cc5)nn4)cc3)sc2c1 [10b] has a reported pIC50 of 5.91

The molecule listed as CS(=O)(=O)O.c1ccc(-n2cc(COc3nc4ccc(C5=NCCN5)cc4s3)nn2)cc1 [11a] has a reported pIC50 of 6.24

The molecule listed as CS(=O)(=O)O.c1ccc(Cn2cc(COc3nc4ccc(C5=NCCN5)cc4s3)nn2)cc1 [11d] has a reported pIC50 of 5.85

The molecule listed as CS(=O)(=O)O.Clc1ccc(-n2cc(COc3nc4ccc(C5=NCCCN5)cc4s3)nn2)cc1 [12b] has a reported pIC50 of 5.55

The molecule listed as CS(=O)(=O)O.Clc1ccc(-n2cc(COc3nc4ccc(C5=NCCN5)cc4s3)nn2)cc1 [11b] has a reported pIC50 of 5.58

The molecule listed as CS(=O)(=O)O.Clc1ccc(-n2cc(-c3nc4ccc(C5=NCCCN5)cc4s3)nn2)cc1 [15b] has a reported pIC50 of 5.64

The molecule listed as CS(=O)(=O)O.c1ccc(-n2cc(-c3nc4ccc(C5=NCCN5)cc4s3)nn2)cc1 [14a] has a reported pIC50 of 6.17

The molecule listed as N=C(N)c1ccc2nc(-c3cn(Cc4ccccc4)nn3)sc2c1 [13d] has a reported pIC50 of 4.83

The molecule listed as COc1ccc(-n2cc(COc3nc4ccc(C5=NCCN5)cc4s3)nn2)cc1.CS(=O)(=O)O [11c] has a reported pIC50 of 5.60

The molecule listed as COc1ccc(-n2cc(-c3nc4ccc(C(=N)N)cc4s3)nn2)cc1 [13c] has a reported pIC50 of 5.44

The molecule listed as N=C(N)c1ccc2nc(-c3cn(-c4ccccc4)nn3)sc2c1 [13a] has a reported pIC50 of 5.11

The molecule listed as CS(=O)(=O)O.c1ccc(-n2cc(-c3nc4ccc(C5=NCCCN5)cc4s3)nn2)cc1 [15a] has a reported pIC50 of 5.12

The molecule listed as CS(=O)(=O)O.Clc1ccc(-n2cc(-c3nc4ccc(C5=NCCN5)cc4s3)nn2)cc1 [14b] has a reported pIC50 of 6.32

The molecule listed as CS(=O)(=O)O.c1ccc(Cn2cc(COc3nc4ccc(C5=NCCCN5)cc4s3)nn2)cc1 [12d] has a reported pIC50 of 5.07

The molecule listed as N=C(N)c1ccc2nc(-c3cn(-c4ccc(Cl)cc4)nn3)sc2c1 [13b] has a reported pIC50 of 5.56

* * *

Counter-ions that a name gives are not always drawn.
Can you tell me melting point for the items I'm about to list?

The compound listed as COc1ccc(-n2cc(-c3nc4ccc(C5=NCCN5)cc4s3)nn2)cc1.CS(=O)(=O)O [14c] has a reported melting point of > 300 °C

The compound listed as N=C(N)c1ccc2nc(-c3cn(Cc4ccccc4)nn3)sc2c1 (as salt: methanesulfonate) [13d] has a reported melting point of 262 to 267 °C

The compound listed as N=C(N)c1ccc2nc(-c3cn(-c4ccccc4)nn3)sc2c1 (as salt: methanesulfonate) [13a] has a reported melting point of 289 to 293 °C

The compound listed as N=C(N)c1ccc2nc(-c3ccc(OCc4cn(-c5ccc(Cl)cc5)nn4)cc3)sc2c1 (as salt: methanesulfonate) [10b] has a reported melting point of 276 to 279 °C

The compound listed as CS(=O)(=O)O.c1ccc(-n2cc(COc3nc4ccc(C5=NCCCN5)cc4s3)nn2)cc1 [12a] has a reported melting point of 249 to 254 °C

The compound listed as CS(=O)(=O)O.Clc1ccc(-n2cc(-c3nc4ccc(C5=NCCN5)cc4s3)nn2)cc1 [14b] has a reported melting point of > 300 °C

The compound listed as CS(=O)(=O)O.c1ccc(-n2cc(COc3nc4ccc(C5=NCCN5)cc4s3)nn2)cc1 [11a] has a reported melting point of 270 to 274 °C
